target_of_assay: human norepinephrine transporter (Homo sapiens (Human), UniProt P23975)
Sequence (P23975 whole entry): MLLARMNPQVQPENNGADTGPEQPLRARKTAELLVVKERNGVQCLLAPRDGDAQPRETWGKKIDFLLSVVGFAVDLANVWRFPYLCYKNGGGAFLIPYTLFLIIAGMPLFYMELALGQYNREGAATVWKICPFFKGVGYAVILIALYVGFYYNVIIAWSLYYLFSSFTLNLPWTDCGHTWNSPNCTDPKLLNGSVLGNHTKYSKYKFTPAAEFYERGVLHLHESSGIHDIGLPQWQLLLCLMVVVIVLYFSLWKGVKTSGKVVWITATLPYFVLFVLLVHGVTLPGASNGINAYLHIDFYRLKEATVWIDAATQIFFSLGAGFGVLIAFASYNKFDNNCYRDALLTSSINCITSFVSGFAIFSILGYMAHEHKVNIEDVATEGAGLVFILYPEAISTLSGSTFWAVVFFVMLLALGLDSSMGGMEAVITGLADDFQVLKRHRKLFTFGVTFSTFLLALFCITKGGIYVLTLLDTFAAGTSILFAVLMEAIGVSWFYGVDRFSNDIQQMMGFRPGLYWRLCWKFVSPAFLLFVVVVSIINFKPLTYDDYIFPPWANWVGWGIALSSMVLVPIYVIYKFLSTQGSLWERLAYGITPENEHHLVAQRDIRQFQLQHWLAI
experimental_protocol: Human NET (norepinephrine transporter) uptake assay
Assay type: cell-based
condition_parameters: selected reference compounds, HEK293F cells, Cheng-Prusoff; read-out: hNET Ki
measurement_type: pKi
Give bare numbers, as −log10 of the molar value.

compound	pKi
CNC[C@@H](c1ccc2ccccc2c1)[C@H](O)c1ccccc1 [compound 180]	8.54

Moving on to the next compound.
Exam item: Respond only with pKi recorded for CNC[C@H](c1ccc2ccccc2c1)[C@H](O)c1ccccc1 [compound 173]
Marked response: 9.30

* * *

target_of_assay: CYP3A4 (Homo sapiens (Human), UniProt P08684)
Sequence (P08684 whole entry): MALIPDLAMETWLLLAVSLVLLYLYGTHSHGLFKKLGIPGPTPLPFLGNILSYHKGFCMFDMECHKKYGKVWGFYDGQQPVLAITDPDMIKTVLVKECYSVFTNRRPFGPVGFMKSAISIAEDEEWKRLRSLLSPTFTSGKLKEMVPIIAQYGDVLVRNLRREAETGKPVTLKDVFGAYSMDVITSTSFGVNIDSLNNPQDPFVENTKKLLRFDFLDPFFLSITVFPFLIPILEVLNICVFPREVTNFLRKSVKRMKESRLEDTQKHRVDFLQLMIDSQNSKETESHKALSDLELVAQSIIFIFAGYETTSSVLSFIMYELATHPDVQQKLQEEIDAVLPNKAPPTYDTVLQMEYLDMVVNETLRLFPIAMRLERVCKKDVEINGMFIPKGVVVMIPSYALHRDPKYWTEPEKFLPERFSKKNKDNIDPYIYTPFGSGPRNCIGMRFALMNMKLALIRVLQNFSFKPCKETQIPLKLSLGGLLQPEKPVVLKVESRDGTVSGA
experimental_protocol: Cytochrome P450 inhibition assay, recombinant CYP3A4 (BFC substrate)
Assay type: in vitro ADME
condition_parameters: recombinant enzyme
Could you please mark rule met for values of IC50 below 9 µM and rule not met for values at or above it?

These recorded examples may help you get a feel for the data.
molecule	group_label
CNC[C@H](c1ccc(Cl)c(Cl)c1)[C@@H](O)c1cccc(N)c1	rule met
CNC[C@@H](c1ccc(Cl)c(Cl)c1)[C@@H](O)c1ccsc1 [Compound 153]	rule not met
CNCC(Cc1ccccc1O)c1ccc2ccccc2c1 (stereo not drawn) [Compound 52]	rule not met
CCc1cccc([C@@H](O)[C@H](CNC)c2ccc(Cl)c(Cl)c2)c1	rule met
CN(C)C[C@H](c1ccc(Cl)c(Cl)c1)[C@H](O)c1ccccc1 (racemic)	rule not met
CNCC(Cc1cccnc1)c1ccc2ccccc2c1 (stereo not drawn) [Compound 48]	rule not met
CNC[C@@H](c1ccc2ccccc2c1)[C@H](O)c1ccccn1 [Compound 99]	rule not met
CNC[C@@H](c1ccc2ccccc2c1)[C@@H](O)c1ccc2c(c1)OCCO2 (racemic)	rule not met

Exam item: Dear reviewer, please state whether CNCC(Cc1ccccc1O)c1ccc2ccccc2c1 (stereo not drawn) [Compound 69] has IC50 strictly beneath 9 µM.
Marked response: rule not met

Exam item: Please check: IC50 for `CNC[C@H](c1ccc2ccccc2c1)[C@H](O)c1ccc2c(c1)OCCO2` , strictly under 9 µM or not?
Marked response: rule met

Exam item: Please let me know if CNCC(Cc1ccccc1OC)c1ccc2ccccc2c1 (stereo not drawn) shows IC50 below 9 µM.
Marked response: rule met

Exam item: Strictly below 9 µM: is that where IC50 of `CNC[C@H](c1ccc(Cl)c(Cl)c1)[C@@H](O)c1cccc(NS(=O)(=O)C(F)(F)F)c1` sits?
Marked response: rule not met

Exam item: Please determine if CNC[C@@H](c1ccc2ccccc2c1)[C@@H](O)c1cccnc1 [Compound 103] is below 9 µM in terms of IC50.
Marked response: rule not met

Exam item: Regarding CNC[C@H](c1ccc(-c2ccccc2)cc1)[C@H](O)c1ccccc1 (racemic) , kindly confirm whether its IC50 is beneath 9 µM.
Marked response: rule not met

Exam item: In plain terms, does `CNC[C@@H](c1ccc(Br)c(Cl)c1)[C@@H](O)c1ccccc1` come in under 9 µM for IC50?
Marked response: rule not met

Exam item: Report whether reported IC50 is lower than 9 µM (strictly) for `CNC[C@@H](c1ccc(Cl)c(Cl)c1)[C@@H](O)c1cccc(N)c1`
Marked response: rule met

Exam item: Input CNCC(c1ccc(Br)c(Cl)c1)[C@H](O)c1ccccc1 (stereo partly drawn) ; condition: IC50 strictly below 9 µM. Does it hold?
Marked response: rule not met

* * *

target_of_assay: UniProtKB P08684
experimental_protocol: Cytochrome P450 inhibition assay, recombinant CYP3A4 (BFC substrate)
Format: in vitro ADME
condition_parameters: recombinant enzyme
measurement_type: pIC50
One number for each entry, as −log10 of the molar value.

For orientation, consider the following solved cases.
molecule	pIC50
CNC[C@H](c1ccc(Cl)c(Cl)c1)[C@H](O)c1ccccc1SC [Compound 156]	5.02
CN1C[C@H](c2ccc3ccccc3c2)[C@@H](c2ccccc2)OCC1=O [Compound 129]	4.70
CNC[C@H](c1ccc(OC)c(C)c1)[C@H](O)c1cccnc1 [Compound 55]	4.70
CNC[C@@H](c1ccc(Cl)c(Cl)c1)[C@@H](O)c1ccccc1[S+](C)[O-] (some centres unmarked) [Compound 128]	4.70
CNC[C@H](c1ccc2ccccc2c1)[C@H](OCc1noc(C)n1)c1ccccc1 [Compound 22]	4.82
CNC[C@H](c1ccc2ccccc2c1)[C@H](OC)c1ccc2c(c1)OCO2 (racemic) [Compound 136]	5.47

Hi! Can you tell me pIC50 for each of these molecules?
1. CNC[C@H](c1ccc2ccccc2c1)[C@H](OCC(=O)NCCO)c1ccccc1 [Compound 14]
2. CNC[C@H](c1ccc(Cl)c(Cl)c1)[C@H](O)c1cccc(I)c1 (single isomer, unassigned) [Compound 151]

Marked response:
4.70
5.68
